Tested on: Cytomegalovirus
ASSAY_TEXT: Antiviral activity against Cytomegalovirus Davis infected in HEL cells assessed as reduction in virus plaque formation
Type: functional, cell-based
STATED_CONDITIONS: Human betaherpesvirus 5, Davis, HEL
pEC50: −log10 of the molar value.
VALUE_KIND: pEC50

COMPOUND | RESULT
CCOP(=O)(OCC)[C@@H]1C[C@@H](Cn2c(=O)n(C(=O)c3ccc(F)cc3)c(=O)c3ccccc32)ON1C (relative stereo) | < 4.70
CCOP(=O)(OCC)C1CC(Cn2c(=O)n(C(=O)c3ccccc3F)c(=O)c3ccccc32)ON1Cc1ccccc1 (mixture of isomers) | < 4.70
CCOP(=O)(OCC)[C@@H]1C[C@@H](Cn2c(=O)n(Cc3ccccc3)c(=O)c3ccccc32)ON1C (relative stereo) | < 4.00
CCOP(=O)(OCC)[C@@H]1C[C@@H](Cn2ccc(=O)n(C(=O)c3ccccc3)c2=O)ON1C | < 4.00
CCOP(=O)(OCC)[C@@H]1C[C@@H](Cn2c(=O)n(C(=O)c3ccccc3)c(=O)c3ccccc32)ON1C | < 4.00
CCOP(=O)(OCC)C1CC(Cn2c(=O)n(Cc3ccc(F)cc3)c(=O)c3ccccc32)ON1C (mixture of isomers) | < 4.70
CCOP(=O)(OCC)C1CC(Cn2c(=O)n(C(=O)c3cccc(F)c3)c(=O)c3ccccc32)ON1C (mixture of isomers) | < 4.00
CCOP(=O)(OCC)C1CC(Cn2c(=O)n(C(=O)c3ccc(F)cc3)c(=O)c3ccccc32)ON1Cc1ccccc1 (mixture of isomers) | < 4.70
CCOP(=O)(OCC)C1CC(Cn2c(=O)n(Cc3ccccc3)c(=O)c3ccccc32)ON1C (mixture of isomers) | < 4.00
CCOP(=O)(OCC)C1CC(Cn2c(=O)n(C(=O)c3ccccc3F)c(=O)c3ccccc32)ON1C (mixture of isomers) | 4.20
CCOP(=O)(OCC)[C@@H]1C[C@@H](Cn2c(=O)n(Cc3ccccc3F)c(=O)c3ccccc32)ON1Cc1ccccc1 (relative stereo) | < 5.40
CCOP(=O)(OCC)C1CC(Cn2c(=O)n(Cc3ccccc3F)c(=O)c3ccccc32)ON1Cc1ccccc1 (stereo not drawn) | ≤ 5.19
CCOP(=O)(OCC)[C@@H]1C[C@@H](Cn2c(=O)n(C(=O)c3ccccc3)c(=O)c3ccccc32)ON1Cc1ccccc1 (relative stereo) | < 4.70
CCOP(=O)(OCC)[C@@H]1C[C@@H](Cn2c(=O)n(C(=O)c3cccc(F)c3)c(=O)c3ccccc32)ON1C (relative stereo) | < 4.70
CCOP(=O)(OCC)[C@H]1C[C@@H](Cn2c(=O)n(C(=O)c3ccccc3)c(=O)c3ccccc32)ON1C | < 4.00
CCOP(=O)(OCC)[C@H]1C[C@@H](Cn2ccc(=O)n(C(=O)c3ccccc3)c2=O)ON1C | < 4.00
CCOP(=O)(OCC)[C@@H]1C[C@@H](Cn2c(=O)n(C(=O)c3cccc(F)c3)c(=O)c3ccccc32)ON1Cc1ccccc1 (relative stereo) | < 4.70
CCOP(=O)(OCC)[C@H]1C[C@@H](Cn2c(=O)n(C(=O)c3ccccc3)c(=O)c3ccccc32)ON1Cc1ccccc1 (relative stereo) | < 4.70

----------
ASSAY_TEXT: Cytotoxicity against HEL cells infected with Varicella-Zoster virus assessed as alteration in cell morphology by microscopic method
Format: cell-based
STATED_CONDITIONS: human, HEL cells infected with Varicella-Zoster virus
Measured MCC, listed per entry.

MOLECULE | MCC
CCOP(=O)(OCC)C1CC(Cn2c(=O)n(Cc3cccc(F)c3)c(=O)c3ccccc32)ON1C (mixture of isomers) | ≥ 100 µM
CCOP(=O)(OCC)[C@H]1C[C@@H](Cn2c(=O)n(C(=O)c3ccccc3)c(=O)c3ccccc32)ON1C | > 100 µM
CCOP(=O)(OCC)C1CC(Cn2c(=O)n(Cc3ccccc3)c(=O)c3ccccc32)ON1C (mixture of isomers) | > 100 µM
CCOP(=O)(OCC)[C@@H]1C[C@@H](Cn2c(=O)n(C(=O)c3ccccc3)c(=O)c3ccccc32)ON1C | ≥ 100 µM

meta.source: ChEMBL document CHEMBL3994569
